- Tested on: Fer (mouse);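 note: 11-residue human phosphosite peptides and single-mutation variants displayed on the E. coli surface, counted by deep sequencing, each peptide's frequency after selection divided by its frequency in the unselected input library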;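 note: frequency after pTyr selection over input frequency; kinase dosed for 20-30% of maximal phosphorylation in three min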
- Assay protocol: phosphorylation enrichment, bacterial display (enrichment ratio); higher = better substrate or ligand; peptides without Tyr show the background
Metric name: phosphorylation enrichment
Answer with the value's number alone.

[[record]]
chain = "LGGAMYFLEAE [PKHD1_Y452_YF]"
numeric_readout = 0.623

[[record]]
chain = "RSFSPYDFQPC [TNS1_Y796_YF]"
numeric_readout = 0.822

[[record]]
chain = "FEPDAYDDLDQ [ELP5_Y302_YF]"
numeric_readout = 0.6


Next sequence, phosphorylation enrichment to be filled in.
Enquiry: Note phosphorylation enrichment for the sequence shown: RPDSPYSRPHD [DOK2_Y271]
Return: 0.379
